protocol.summary: Plasma pharmacokinetics, Arm II (oral BID), phase 1 trial
Format: in vivo, human
condition.notes: human, plasma, po, 190 mg, Arm II PO BID 190 mg, day 15, N=2, mean (individual); read-out: t1/2 (harmonic mean) (converted)
Description: Pharmacokinetics of ilorasertib were evaluated in the dose-escalation cohort on blood samples that were collected on cycle 1 days 1 and 15. Parameters determined: Cmax, time to Cmax (Tmax), terminal phase elimination half-life (t1/2), clearance, apparent oral clearance (CL/F), and area under the plasma concentration-time curve from time 0 to time of last measurable concentration (AUCt) and from time 0 to infinity (AUC∞). […]
recorded.endpoint: half-life (h)
Respond numerically; units are h and should not be typed.

Please fill in: half-life reported for `Nc1ncc(-c2cnn(CCO)c2)c2scc(-c3ccc(NC(=O)Nc4cccc(F)c4)cc3)c12` = 8.4

====

protocol.summary: Plasma pharmacokinetics, Arm I (oral QD), phase 1 trial
Format: in vivo, human
condition.notes: human, in vivo, po, 80 mg, AUC∞
recorded.endpoint: AUC(0-inf)

Please fill in: AUC(0-inf) reported for `Nc1ncc(-c2cnn(CCO)c2)c2scc(-c3ccc(NC(=O)Nc4cccc(F)c4)cc3)c12` = 2820 ng·h/mL

====

protocol.summary: Plasma pharmacokinetics, Arm III (i.v. infusion), phase 1 trial
Format: in vivo, human
condition.notes: human, plasma, iv, 32 mg, Arm III i.v. infusion 32 mg, day 15, N=2, mean (individual)
recorded.endpoint: AUC(0-inf)
Write down the value, and be sure its unit follows.

Please fill in: AUC(0-inf) reported for `Nc1ncc(-c2cnn(CCO)c2)c2scc(-c3ccc(NC(=O)Nc4cccc(F)c4)cc3)c12` = 8410 ng·h/mL

====

protocol.summary: Plasma pharmacokinetics, Arm II (oral BID), phase 1 trial
Assay type: in vivo, human
condition.notes: human, plasma, po, 90 mg, Arm II PO BID 90 mg, day 15, N=2, mean (individual)
recorded.endpoint: AUC(0-inf) (ng·h/mL)
Respond numerically; units are ng·h/mL and should not be typed.

Please fill in: AUC(0-inf) reported for `Nc1ncc(-c2cnn(CCO)c2)c2scc(-c3ccc(NC(=O)Nc4cccc(F)c4)cc3)c12` = 5330

====

protocol.summary: Plasma pharmacokinetics, Arm II (oral BID), phase 1 trial
Assay type: in vivo, human
condition.notes: human, plasma, po, 40 mg, Arm II PO BID 40 mg, day 15, N=3
recorded.endpoint: AUC(0-t) (ng·h/mL)
Respond numerically; units are ng·h/mL and should not be typed.

Please fill in: AUC(0-t) reported for `Nc1ncc(-c2cnn(CCO)c2)c2scc(-c3ccc(NC(=O)Nc4cccc(F)c4)cc3)c12` = 3750

====

protocol.summary: Plasma pharmacokinetics, Arm I (oral QD), phase 1 trial
Format: in vivo, human
condition.notes: human, in vivo, po, 80 mg, AUCt
recorded.endpoint: AUC(0-t) (ng·h/mL)
Respond numerically; units are ng·h/mL and should not be typed.

Please fill in: AUC(0-t) reported for `Nc1ncc(-c2cnn(CCO)c2)c2scc(-c3ccc(NC(=O)Nc4cccc(F)c4)cc3)c12` = 1900

====

protocol.summary: Plasma pharmacokinetics, Arm II (oral BID), phase 1 trial
Assay type: in vivo, human
condition.notes: human, plasma, po, 340 mg, Arm II PO BID 340 mg, day 1, N=1
recorded.endpoint: AUC(0-inf) (ng·h/mL)
Respond numerically; units are ng·h/mL and should not be typed.

Please fill in: AUC(0-inf) reported for `Nc1ncc(-c2cnn(CCO)c2)c2scc(-c3ccc(NC(=O)Nc4cccc(F)c4)cc3)c12` = 98800

====

protocol.summary: Plasma pharmacokinetics, Arm I (oral QD), phase 1 trial
Type: in vivo, human
condition.notes: human, in vivo, po, 20 mg, AUC∞
recorded.endpoint: AUC(0-inf) (ng·h/mL)
Respond numerically; units are ng·h/mL and should not be typed.

Please fill in: AUC(0-inf) reported for Nc1ncc(-c2cnn(CCO)c2)c2scc(-c3ccc(NC(=O)Nc4cccc(F)c4)cc3)c12 [ilorasertib, Ilorasertib] = 2260

====

protocol.summary: Plasma pharmacokinetics, Arm II (oral BID), phase 1 trial
Assay type: in vivo, human
condition.notes: human, plasma, po, 90 mg, Arm II PO BID 90 mg, day 15, N=3; read-out: Cmax
recorded.endpoint: Cmax (ng/mL)
Respond numerically; units are ng/mL and should not be typed.

Please fill in: Cmax reported for `Nc1ncc(-c2cnn(CCO)c2)c2scc(-c3ccc(NC(=O)Nc4cccc(F)c4)cc3)c12` = 320

====

protocol.summary: Plasma pharmacokinetics, Arm III (i.v. infusion), phase 1 trial
Format: in vivo, human
condition.notes: human, plasma, iv, 8 mg, Arm III i.v. infusion 8 mg, day 1, N=3; read-out: t1/2 (harmonic mean) (converted)
recorded.endpoint: half-life (h)
Respond numerically; units are h and should not be typed.

Please fill in: half-life reported for `Nc1ncc(-c2cnn(CCO)c2)c2scc(-c3ccc(NC(=O)Nc4cccc(F)c4)cc3)c12` = 8.5

====

protocol.summary: Plasma pharmacokinetics, Arm III (i.v. infusion), phase 1 trial
Type: in vivo, human
condition.notes: human, plasma, iv, 16 mg, Arm III i.v. infusion 16 mg, day 1, N=1
Procedure: Pharmacokinetics of ilorasertib were evaluated in the dose-escalation cohort on blood samples that were collected on cycle 1 days 1 and 15. Parameters determined: Cmax, time to Cmax (Tmax), terminal phase elimination half-life (t1/2), clearance, apparent oral clearance (CL/F), and area under the plasma concentration-time curve from time 0 to time of last measurable concentration (AUCt) and from time 0 to infinity (AUC∞). […]
recorded.endpoint: AUC(0-t)
Write down the value, and be sure its unit follows.

Please fill in: AUC(0-t) reported for `Nc1ncc(-c2cnn(CCO)c2)c2scc(-c3ccc(NC(=O)Nc4cccc(F)c4)cc3)c12` = 1910 ng·h/mL

====

protocol.summary: Plasma pharmacokinetics, Arm III (i.v. infusion), phase 1 trial
Type: in vivo, human
condition.notes: human, plasma, iv, 32 mg, Arm III i.v. infusion 32 mg, day 1, N=2, mean (individual)
Protocol: Pharmacokinetics of ilorasertib were evaluated in the dose-escalation cohort on blood samples that were collected on cycle 1 days 1 and 15. Parameters determined: Cmax, time to Cmax (Tmax), terminal phase elimination half-life (t1/2), clearance, apparent oral clearance (CL/F), and area under the plasma concentration-time curve from time 0 to time of last measurable concentration (AUCt) and from time 0 to infinity (AUC∞). […]
recorded.endpoint: AUC(0-inf)
Write down the value, and be sure its unit follows.

Please fill in: AUC(0-inf) reported for Nc1ncc(-c2cnn(CCO)c2)c2scc(-c3ccc(NC(=O)Nc4cccc(F)c4)cc3)c12 [ilorasertib, Ilorasertib] = 9180 ng·h/mL

====

protocol.summary: Plasma pharmacokinetics, Arm II (oral BID), phase 1 trial
Assay type: in vivo, human
condition.notes: human, plasma, po, 340 mg, Arm II PO BID 340 mg, day 15, N=1
recorded.endpoint: AUC(0-t)

Please fill in: AUC(0-t) reported for `Nc1ncc(-c2cnn(CCO)c2)c2scc(-c3ccc(NC(=O)Nc4cccc(F)c4)cc3)c12` = 15700 ng·h/mL

====

protocol.summary: Plasma pharmacokinetics, Arm II (oral BID), phase 1 trial
Assay type: in vivo, human
condition.notes: human, plasma, po, 230 mg, Arm II PO BID 230 mg, day 1, N=2, mean (individual); read-out: t1/2 (harmonic mean) (converted)
recorded.endpoint: half-life (h)
Respond numerically; units are h and should not be typed.

Please fill in: half-life reported for Nc1ncc(-c2cnn(CCO)c2)c2scc(-c3ccc(NC(=O)Nc4cccc(F)c4)cc3)c12 [ilorasertib, Ilorasertib] = 9

====

protocol.summary: Plasma pharmacokinetics, Arm I (oral QD), phase 1 trial
Format: in vivo, human
condition.notes: human, in vivo, po, 20 mg, Cmax
Method: Pharmacokinetics of ilorasertib were evaluated in the dose-escalation cohort on blood samples that were collected on cycle 1 days 1 and 15. Parameters determined: Cmax, time to Cmax (Tmax), terminal phase elimination half-life (t1/2), clearance, apparent oral clearance (CL/F), and area under the plasma concentration-time curve from time 0 to time of last measurable concentration (AUCt) and from time 0 to infinity (AUC∞). […]
recorded.endpoint: Cmax (ng/mL)
Respond numerically; units are ng/mL and should not be typed.

Please fill in: Cmax reported for `Nc1ncc(-c2cnn(CCO)c2)c2scc(-c3ccc(NC(=O)Nc4cccc(F)c4)cc3)c12` = 130

====

protocol.summary: Plasma pharmacokinetics, Arm III (i.v. infusion), phase 1 trial
Assay type: in vivo, human
condition.notes: human, plasma, iv, 8 mg, Arm III i.v. infusion 8 mg, day 15, N=4
recorded.endpoint: AUC(0-t) (ng·h/mL)
Respond numerically; units are ng·h/mL and should not be typed.

Please fill in: AUC(0-t) reported for `Nc1ncc(-c2cnn(CCO)c2)c2scc(-c3ccc(NC(=O)Nc4cccc(F)c4)cc3)c12` = 1750

====

protocol.summary: Plasma pharmacokinetics, Arm III (i.v. infusion), phase 1 trial
Assay type: in vivo, human
condition.notes: human, plasma, iv, 32 mg, Arm III i.v. infusion 32 mg, day 15, N=2, mean (individual)
recorded.endpoint: clearance (mL/min)
Respond numerically; units are mL/min and should not be typed.

Please fill in: clearance reported for Nc1ncc(-c2cnn(CCO)c2)c2scc(-c3ccc(NC(=O)Nc4cccc(F)c4)cc3)c12 [ilorasertib, Ilorasertib] = 73
